# key: entry, value: IC50
targetOfAssay: recombinant human Nav1.7 (Homo sapiens (Human))
assayOverview: FRET-based membrane potential assay, recombinant human sodium channel Nav1.7
Format: cell-based
runConditions: HEK293 cells stably expressing recombinant human Nav1.7; veratridine + scorpion venom depolarization; read-out: FRET-Membrane Potential Nav1.7 IC50

| molecule | boundSign | IC50 [µM] |
| --- | --- | --- |
| NC(=O)c1ccc2cc(Oc3ccc(C(F)(F)F)cn3)ccc2n1 | > | 20 |
| O=C(c1ccc2cc(Oc3ccc(C(F)(F)F)cn3)ccc2n1)N1CCC(F)(COc2cccnc2)C1 (centres unmarked) | = | 1.42 |
| CN(C)C(=O)[C@@H]1CCCN1C(=O)c1ccc2cc(Oc3ccc(C(F)F)cn3)ccc2n1 | > | 20 |
| O=C(NCC1(O)CCC1)c1ccc2cc(Oc3ccc(C(F)(F)F)cn3)ccc2n1 | = | 0.439 |
| COC[C@H]1CN(C(=O)c2ccc3cc(Oc4ccc(C(F)(F)F)nc4)ccc3n2)CCN1 | = | 0.976 |
| CC1(O)CN(C(=O)c2ccc3cc(Oc4ccc(C(F)(F)F)cn4)ccc3n2)C1 | = | 2.21 |
| O=C(c1ccc2cc(Oc3ccc(C(F)(F)F)nn3)ccc2n1)N1CCNCC1 | = | 19.8 |
| O=C(NCCC(F)(F)F)c1ccc2cc(Oc3ccc(C(F)(F)F)cn3)ccc2n1 | = | 1.27 |
| O=C(c1ccc2cc(Oc3ccc(C(F)(F)F)cn3)ccc2n1)N1CC[C@@H]2CN[C@@H]2C1 | = | 9.4 |
| C[C@@H]1CN(C(=O)c2ccc3cc(Oc4ccc(C(F)(F)F)cn4)ccc3n2)C[C@H]1O (relative stereo) | = | 14.8 |
| CCOCCNC(=O)c1ccc2cc(Oc3ccc(C#N)cc3)ccc2n1 | = | 2.41 |
| O=C(c1ccc2cc(Oc3ccc(C(F)(F)F)cn3)ccc2n1)N1CCNCC(O)C1 (centres unmarked) | = | 3.81 |
| O=C(NC1CCC(F)(F)CC1)c1ccc2cc(Oc3ccc(C(F)F)cn3)ccc2n1 | = | 3.17 |
| CN(C(=O)c1ccc2cc(Oc3ccc(C(F)(F)F)cn3)ccc2n1)C1CCS(=O)(=O)C1 (centres unmarked) | = | 11.9 |
| N[C@@H]1[C@H]2CN(C(=O)c3ccc4cc(Oc5ccc(C(F)(F)F)cn5)ccc4n3)C[C@@H]12 | = | 0.727 |
| O=C(c1ccc2cc(Oc3ccc(C(F)(F)F)cn3)ccc2n1)N1C[C@@H]2C[C@H](CO)[C@H]1C2 | = | 6.13 |
| CC1(C)CCN(C(=O)c2ccc3cc(Oc4ccc(C(F)(F)F)cn4)ccc3n2)C1 | = | 1.4 |
| O=C(c1ccc2cc(Oc3ccc(C(F)(F)F)cn3)ccc2n1)N1CCN(c2ccccn2)CC1 | = | 0.69 |
| N#Cc1ccc(Oc2ccc3nc(C(=O)Nc4nccs4)ccc3c2)cc1 | > | 20 |
| O=C(N[C@@H]1CCN(C(=O)c2ccc3cc(Oc4ccc(C(F)(F)F)cn4)ccc3n2)C1)C1CC1 | = | 5.86 |
| O=C(c1ccc2cc(Oc3ccc(C(F)(F)F)cn3)ccc2n1)N1CCOC(CF)C1 (centres unmarked) | = | 2.9 |
| COc1ccccc1N1CC(NC(=O)c2ccc3cc(Oc4ccc(C(F)(F)F)cn4)ccc3n2)CC1=O (centres unmarked) | = | 0.429 |
| O=C(NCC(F)(F)F)c1ccc2cc(Oc3ccc(C(F)F)cn3)ccc2n1 | = | 1.74 |
| CCN(CC)C(=O)CNC(=O)c1ccc2cc(Oc3ccc(C(F)F)cn3)ccc2n1 | = | 0.354 |
| O=C(NC1CC[S+]([O-])CC1)c1ccc2cc(Oc3ccc(C(F)F)cn3)ccc2n1 (centres unmarked) | = | 2.63 |
| O=C(c1ccc2cc(Oc3ccc(C(F)(F)F)cn3)ccc2n1)N1CC(Oc2ccc(Br)cc2)C1 | > | 20 |
| O=C(NC1CCS(=O)(=O)C1)c1ccc2cc(Oc3ccc(C(F)(F)F)cn3)ccc2n1 (centres unmarked) | = | 0.504 |
| CC1(Oc2ccccc2)CN(C(=O)c2ccc3cc(Oc4ccc(C(F)(F)F)cn4)ccc3n2)C1 | > | 20 |
| O=C(NC1CCNCC1)c1ccc2cc(Oc3ccc(C(F)(F)F)cn3)ccc2n1 | = | 3.21 |
| O=C(N[C@@H]1CCS(=O)(=O)C1)c1ccc2cc(Oc3ccc(C(F)(F)F)cn3)ccc2n1 | = | 0.262 |
| N#CCCN1CCN(C(=O)c2ccc3cc(Oc4ccc(C(F)(F)F)cn4)ccc3n2)CC1 | = | 16.2 |
| O=C(c1ccc2cc(Oc3ccc(C(F)(F)F)cn3)ccc2n1)N1CCC2(COC2)C1 | = | 9.32 |

* * *

targetOfAssay: recombinant human Nav1.7 (Homo sapiens (Human))
assayOverview: FRET-based membrane potential assay, recombinant human sodium channel Nav1.7
Assay type: cell-based
runConditions: read-out: FRET-Membrane Potential Nav1.7 IC50
pIC50: −log10 of the molar value.

| molecule | targetOfAssay | boundSign | pIC50 |
| --- | --- | --- | --- |
| O=C(c1ccc2cc(Oc3cnc(C(F)(F)F)cn3)ccc2n1)N1CCNCC1 | recombinant human Nav1.7 (Homo sapiens (Human)) | = | 5.33 |
| O=C(NCCN1CCCCC1)c1ccc2cc(Oc3ccccn3)ccc2n1 | recombinant human Nav1.7 (Homo sapiens (Human)) | < | 4.70 |
| O=C(NC1CS(=O)(=O)CC1O)c1ccc2cc(Oc3ccc(C(F)(F)F)cn3)ccc2n1 (centres unmarked) | recombinant human Nav1.7 (Homo sapiens (Human)) | = | 6.11 |
| O=C(c1ccc2cc(Oc3ccc(C(F)F)cn3)ccc2n1)N1CCC(N2CCOCC2)CC1 | recombinant human Nav1.7 (Homo sapiens (Human)) | = | 4.90 |
| O=C(c1ccc2cc(Oc3ccc(C(F)(F)F)cn3)ccc2n1)N1CCC(N2CCOCC2)C1 (centres unmarked) | recombinant human Nav1.7 (Homo sapiens (Human)) | = | 4.92 |
| O=C(c1ccc2cc(Oc3ccc(C(F)(F)F)cn3)ccc2n1)N1CCN(CCC(F)(F)F)CC1 | recombinant human Nav1.7 (Homo sapiens (Human)) | = | 5.51 |
| C[C@@H](O)CNC(=O)c1ccc2cc(Oc3ccc(C(F)(F)F)cn3)ccc2n1 | recombinant human Nav1.7 (Homo sapiens (Human)) | = | 6.51 |
| O=C(NC1CC(F)(F)C1)c1ccc2cc(Oc3ccc(C(F)F)cn3)ccc2n1 | recombinant human Nav1.7 (Homo sapiens (Human)) | = | 5.81 |
| N#Cc1ccc(Oc2ccc3nc(C(=O)NC4CCOC4)ccc3c2)cc1 (centres unmarked) | recombinant human Nav1.7 (Homo sapiens (Human)) | = | 6.25 |
| O=C(NC1CC[S+]([O-])CC1)c1ccc2cc(Oc3ccc(C(F)(F)F)cn3)ccc2n1 (centres unmarked) | recombinant human Nav1.7 (Homo sapiens (Human)) | = | 6.27 |
| O=C(N[C@@H]1CC[C@H]2CN(Cc3ccccc3)C[C@H]21)c1ccc2cc(Oc3ccc(C(F)(F)F)cn3)ccc2n1 | recombinant human Nav1.7 (Homo sapiens (Human)) | = | 6.59 |
| N#Cc1ccc(Oc2ccc3nc(C(=O)NCc4ccccn4)ccc3c2)cc1 | recombinant human Nav1.7 (Homo sapiens (Human)) | = | 6.07 |
| N#Cc1ccc(Oc2ccc3nc(C(=O)N[C@H]4CCS(=O)(=O)C4)ccc3c2)cc1 | recombinant human Nav1.7 (Homo sapiens (Human)) | = | 6.14 |
| CC(O)CNC(=O)c1ccc2cc(Oc3ccc(C#N)cc3)ccc2n1 (centres unmarked) | recombinant human Nav1.7 (Homo sapiens (Human)) | = | 5.55 |
| CS(=O)(=O)N1CCN(C(=O)c2ccc3cc(Oc4ccc(C(F)(F)F)cn4)ccc3n2)CC1 | recombinant human Nav1.7 (Homo sapiens (Human)) | = | 5.06 |
| CC(C)C(O)CNC(=O)c1ccc2cc(Oc3ccc(C#N)cc3)ccc2n1 (centres unmarked) | recombinant human Nav1.7 (Homo sapiens (Human)) | = | 6.16 |
| O=C(c1ccc2cc(Oc3ccc(C(F)(F)F)cn3)ccc2n1)N1C[C@H](O)C[C@@H](O)C1 | recombinant human Nav1.7 (Homo sapiens (Human)) | < | 4.70 |

* * *

targetOfAssay: recombinant human Nav1.7 (Homo sapiens (Human), UniProt Q15858)
Sequence (Q15858 whole entry): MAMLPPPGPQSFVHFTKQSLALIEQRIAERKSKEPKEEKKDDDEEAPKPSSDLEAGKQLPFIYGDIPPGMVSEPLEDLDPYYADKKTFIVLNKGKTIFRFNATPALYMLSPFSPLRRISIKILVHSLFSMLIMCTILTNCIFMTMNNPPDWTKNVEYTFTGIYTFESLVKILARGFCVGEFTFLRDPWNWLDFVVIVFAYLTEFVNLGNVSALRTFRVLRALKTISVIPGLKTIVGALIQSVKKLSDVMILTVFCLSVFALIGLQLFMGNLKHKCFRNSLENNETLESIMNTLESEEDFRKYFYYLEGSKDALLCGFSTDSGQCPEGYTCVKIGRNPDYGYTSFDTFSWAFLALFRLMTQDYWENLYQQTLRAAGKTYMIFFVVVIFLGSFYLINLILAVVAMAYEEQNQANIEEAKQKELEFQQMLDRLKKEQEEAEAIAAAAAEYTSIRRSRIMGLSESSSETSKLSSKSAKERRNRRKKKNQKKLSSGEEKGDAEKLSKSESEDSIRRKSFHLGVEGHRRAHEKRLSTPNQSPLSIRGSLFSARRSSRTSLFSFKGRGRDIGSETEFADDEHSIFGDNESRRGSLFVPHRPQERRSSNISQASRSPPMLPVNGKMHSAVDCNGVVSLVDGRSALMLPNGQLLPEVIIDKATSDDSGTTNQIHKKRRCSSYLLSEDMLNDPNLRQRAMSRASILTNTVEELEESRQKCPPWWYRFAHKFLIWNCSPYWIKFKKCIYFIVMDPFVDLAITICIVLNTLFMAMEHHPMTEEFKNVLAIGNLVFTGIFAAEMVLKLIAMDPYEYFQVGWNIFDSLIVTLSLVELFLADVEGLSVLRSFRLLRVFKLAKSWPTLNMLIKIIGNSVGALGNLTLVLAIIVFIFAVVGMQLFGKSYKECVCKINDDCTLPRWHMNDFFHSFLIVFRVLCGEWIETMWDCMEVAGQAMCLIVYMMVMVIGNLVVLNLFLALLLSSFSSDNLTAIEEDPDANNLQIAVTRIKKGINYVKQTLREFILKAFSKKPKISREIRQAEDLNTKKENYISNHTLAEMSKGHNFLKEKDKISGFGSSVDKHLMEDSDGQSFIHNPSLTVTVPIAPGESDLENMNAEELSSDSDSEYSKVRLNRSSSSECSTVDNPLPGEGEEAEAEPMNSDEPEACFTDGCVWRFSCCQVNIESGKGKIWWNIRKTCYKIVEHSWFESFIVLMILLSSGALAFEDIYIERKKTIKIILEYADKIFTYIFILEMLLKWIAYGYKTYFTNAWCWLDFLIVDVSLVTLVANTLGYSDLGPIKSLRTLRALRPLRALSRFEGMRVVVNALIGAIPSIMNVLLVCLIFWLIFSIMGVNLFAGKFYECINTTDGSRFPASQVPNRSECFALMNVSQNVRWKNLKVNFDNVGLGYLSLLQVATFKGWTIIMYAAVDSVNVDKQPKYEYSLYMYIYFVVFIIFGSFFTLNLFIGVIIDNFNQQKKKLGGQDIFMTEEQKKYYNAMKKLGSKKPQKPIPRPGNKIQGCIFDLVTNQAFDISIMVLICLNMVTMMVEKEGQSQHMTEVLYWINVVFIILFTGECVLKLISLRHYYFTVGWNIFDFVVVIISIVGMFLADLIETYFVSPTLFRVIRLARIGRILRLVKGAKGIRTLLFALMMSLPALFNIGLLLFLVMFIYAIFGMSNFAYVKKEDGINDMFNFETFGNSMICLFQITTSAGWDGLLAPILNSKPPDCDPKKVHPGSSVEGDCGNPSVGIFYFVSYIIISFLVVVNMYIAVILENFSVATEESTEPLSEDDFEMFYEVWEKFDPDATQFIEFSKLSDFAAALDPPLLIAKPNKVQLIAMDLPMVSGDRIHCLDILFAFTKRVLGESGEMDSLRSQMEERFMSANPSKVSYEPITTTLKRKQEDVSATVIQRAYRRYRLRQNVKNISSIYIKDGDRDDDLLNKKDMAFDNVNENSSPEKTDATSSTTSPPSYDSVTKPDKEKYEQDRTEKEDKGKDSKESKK
assayOverview: FRET-based membrane potential assay, recombinant human sodium channel Nav1.7
Format: cell-based
runConditions: HEK293 cells stably expressing recombinant human Nav1.7; veratridine + scorpion venom depolarization; read-out: FRET-Membrane Potential Nav1.7 IC50
# key: entry, value: IC50
endpointName: IC50 (nM)

| molecule | endpointName | measurementUnit | boundSign | measuredResult |
| --- | --- | --- | --- | --- |
| O=C(c1ccc2cc(Oc3ccc(C(F)(F)F)cn3)ccc2n1)N1CC(F)C(F)C1 (centres unmarked) | IC50 | nM | = | 1610 |
| CC(=O)NCC(C)CNC(=O)c1ccc2cc(Oc3ccc(C(F)(F)F)cn3)ccc2n1 (centres unmarked) | IC50 | nM | = | 2760 |
| O=C(NC1CCSCC1)c1ccc2cc(Oc3ccc(C(F)(F)F)cn3)ccc2n1 | IC50 | nM | = | 1220 |
| O=C(NCC1CS(=O)(=O)C1)c1ccc2cc(Oc3ccc(C(F)(F)F)cn3)ccc2n1 | IC50 | nM | = | 1070 |
| O=C(c1ccc2cc(Oc3ccc(C(F)(F)F)cn3)ccc2n1)N1CCN(CCO)CC1 | IC50 | nM | = | 3060 |
| CN1CC(NC(=O)c2ccc3cc(Oc4ccc(C(F)(F)F)nc4)ccc3n2)CC1=O (centres unmarked) | IC50 | nM | = | 1160 |
| O=C(NCc1ccccn1)c1ccc2cc(Oc3ccc(C(F)(F)F)cn3)ccc2n1 | IC50 | nM | = | 792 |
| O=C(NCC1CSC1)c1ccc2cc(Oc3ccc(C(F)(F)F)cn3)ccc2n1 | IC50 | nM | = | 1760 |
| COc1cccc(CNC(=O)c2ccc3cc(Oc4ccc(C#N)cc4)ccc3n2)c1OC | IC50 | nM | = | 7250 |
| O=C(c1ccc2cc(Oc3ccc(C(F)(F)F)nc3)ccc2n1)N1CC=CC1 | IC50 | nM | > | 20000 |
| CC1(CN2CCN(C(=O)c3ccc4cc(Oc5ccc(C(F)(F)F)cn5)ccc4n3)CC2)COC1 | IC50 | nM | = | 11400 |
| O=C(NCC(=O)N1CCC(F)(F)C1)c1ccc2cc(Oc3ccc(C(F)(F)F)cn3)ccc2n1 | IC50 | nM | = | 3430 |
| CC(O)c1ccc(Oc2ccc3nc(C(=O)N4CCNCC4)ccc3c2)cc1 (centres unmarked) | IC50 | nM | = | 11400 |
| CN1CC(NC(=O)c2ccc3cc(Oc4ccc(C(F)(F)F)cn4)ccc3n2)CC1=O (single isomer, unassigned) [Example 74] | IC50 | nM | = | 863 |
| O=C(NCC(F)F)c1ccc2cc(Oc3ccc(C(F)(F)F)cn3)ccc2n1 | IC50 | nM | = | 2630 |
| CN(CC(=O)NC1CC1)C(=O)c1ccc2cc(Oc3ccc(C(F)(F)F)cn3)ccc2n1 | IC50 | nM | = | 3210 |
| CCN(CC)C(=O)CCNC(=O)c1ccc2cc(Oc3ccc(C(F)F)cn3)ccc2n1 | IC50 | nM | = | 521 |
| O=C(c1ccc2cc(Oc3ccc(C(F)(F)F)cn3)ccc2n1)N1CCN2C(=O)OC[C@H]2C1 | IC50 | nM | > | 20000 |
| O=C1CCN(C(=O)c2ccc3cc(Oc4ccc(C(F)(F)F)cn4)ccc3n2)CC1 | IC50 | nM | = | 13200 |
| O=C(c1ccc2cc(Oc3ccc(C(F)(F)F)cn3)ccc2n1)N1CC2(CCOC2)C1 | IC50 | nM | = | 2770 |
| O=C(NCC(=O)N1C[C@H](O)C[C@H]1CO)c1ccc2cc(Oc3ccc(C(F)(F)F)cn3)ccc2n1 | IC50 | nM | = | 16600 |
| O=C(c1ccc2cc(Oc3ccc(C(F)(F)F)cn3)ccc2n1)N1CCN(c2cnccn2)CC1 | IC50 | nM | = | 2980 |
| N#Cc1ccc(Oc2ccc3nc(C(=O)NCCN4CCCC4)ccc3c2)cc1 | IC50 | nM | = | 329 |
| O=C(c1ccc2cc(Oc3ccc(C(F)(F)F)cn3)ccc2n1)N1CCC(F)(COc2ccncc2)C1 (centres unmarked) | IC50 | nM | = | 1100 |
| O=C(c1ccc2cc(Oc3ccc(C(F)(F)F)cn3)ccc2n1)N1C[C@@H](F)C[C@@H]1c1cc(F)ccc1F | IC50 | nM | = | 684 |
| O=C(c1ccc2cc(Oc3ccc(C(F)(F)F)cn3)ccc2n1)N1CC(F)(F)C1 | IC50 | nM | = | 3650 |
| O=C(NCC1CNC1)c1ccc2cc(Oc3ccc(C(F)(F)F)cn3)ccc2n1 | IC50 | nM | = | 6600 |
| O=C(c1ccc2cc(Oc3ccc(C(F)(F)F)cn3)ccc2n1)N1CC2(CCCOC2)C1 | IC50 | nM | = | 2400 |
| O=C(NC1CC(N2CCOCC2)C1)c1ccc2cc(Oc3ccc(C(F)(F)F)nc3)ccc2n1 (centres unmarked) | IC50 | nM | = | 295 |
| O=C(NCCN1CCOC1=O)c1ccc2cc(Oc3ccc(C(F)(F)F)cn3)ccc2n1 | IC50 | nM | = | 2880 |
| O=C(N[C@H]1CS(=O)(=O)C[C@H]1O)c1ccc2cc(Oc3ccc(C(F)(F)F)nc3)ccc2n1 | IC50 | nM | = | 2710 |
| CN(C)C(=O)[C@@H]1C[C@@H](F)CN1C(=O)c1ccc2cc(Oc3ccc(C(F)(F)F)cn3)ccc2n1 | IC50 | nM | = | 2640 |
